target: recombinant Mcl-1 (residues 172-327) (Homo sapiens (Human), UniProt Q07820); experiment: Bak peptide fluorescence polarization anisotropy competition assay, Mcl-1; type: binding; settings: read-out: Ki for inhibition of Mcl-1
Sequence (Q07820 172-327): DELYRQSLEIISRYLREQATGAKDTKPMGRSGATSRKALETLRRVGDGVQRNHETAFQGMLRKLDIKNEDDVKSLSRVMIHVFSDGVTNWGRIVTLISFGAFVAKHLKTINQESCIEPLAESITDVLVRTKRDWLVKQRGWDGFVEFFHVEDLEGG
Recorded Endpoint: Ki

Compound	Experimental Result
Cc1cc(OCCCc2c(C(=O)NS(C)(=O)=O)[nH]c3ccc(Cl)cc23)cc(C)c1Cl [Example 110]	0.501 to 0.999 µM

Prompt line: Provide the documented Ki with recombinant Mcl-1 (residues 172-327) (Homo sapiens (Human), UniProt Q07820) as the system for Cc1cc(OCCCc2c(C(=O)NS(C)(=O)=O)[nH]c3ccccc23)ccc1Cl [Example 20]
Response line: 0.301 to 0.5 µM

Prompt line: Item: Cc1cc(OCCCc2c(C(=O)NS(=O)(=O)CCN(C/C=C/c3ccccc3)C/C=C/c3ccccc3)[nH]c3ccccc23)cc(C)c1Cl [Example 203] Test system: recombinant Mcl-1 (residues 172-327) (Homo sapiens (Human), UniProt Q07820) Read-out: Ki Value: ?
Response line: 0.301 to 0.5 µM

Prompt line: Notebook entry, recombinant Mcl-1 (residues 172-327) (Homo sapiens (Human), UniProt Q07820) assay: Ki of Cc1cc(OCCCc2c(C(=O)NS(=O)(=O)c3ccc(OCc4ccccc4)nc3)[nH]c3ccccc23)cc(C)c1Cl [Example 144] = ?
Response line: 0.301 to 0.5 µM

Prompt line: Request - read-out Ki | tested on recombinant Mcl-1 (residues 172-327) (Homo sapiens (Human), UniProt Q07820) | compound Cc1cc(OCCCc2c(C(=O)NS(=O)(=O)c3ccc(OCc4ccccc4)cc3)[nH]c3cc(Cl)ccc23)cc(C)c1Cl [Example 224]
Response line: 0.301 to 0.5 µM

Prompt line: Recall the recorded Ki for Cc1cc(OCCCc2c(C(=O)NS(=O)(=O)CCNC(=O)c3cccc(Oc4ccccc4)c3)n(Cc3cccnc3)c3cc(Cl)ccc23)cc(C)c1Cl [Example 276] with recombinant Mcl-1 (residues 172-327) (Homo sapiens (Human), UniProt Q07820) and state it.
Response line: 0.301 to 0.5 µM

Prompt line: Entry Cc1cc(OCCCc2c(C(=O)NS(=O)(=O)CCNC(=O)c3cn[nH]c3)[nH]c3ccccc23)cc(C)c1Cl [Example 182] , system recombinant Mcl-1 (residues 172-327) (Homo sapiens (Human), UniProt Q07820): what Ki was measured?
Response line: 1 to 9.99 µM
